target.of.assay: mtDXPS (Mycobacterium tuberculosis, UniProt P9WNS3)
Sequence (P9WNS3 whole entry): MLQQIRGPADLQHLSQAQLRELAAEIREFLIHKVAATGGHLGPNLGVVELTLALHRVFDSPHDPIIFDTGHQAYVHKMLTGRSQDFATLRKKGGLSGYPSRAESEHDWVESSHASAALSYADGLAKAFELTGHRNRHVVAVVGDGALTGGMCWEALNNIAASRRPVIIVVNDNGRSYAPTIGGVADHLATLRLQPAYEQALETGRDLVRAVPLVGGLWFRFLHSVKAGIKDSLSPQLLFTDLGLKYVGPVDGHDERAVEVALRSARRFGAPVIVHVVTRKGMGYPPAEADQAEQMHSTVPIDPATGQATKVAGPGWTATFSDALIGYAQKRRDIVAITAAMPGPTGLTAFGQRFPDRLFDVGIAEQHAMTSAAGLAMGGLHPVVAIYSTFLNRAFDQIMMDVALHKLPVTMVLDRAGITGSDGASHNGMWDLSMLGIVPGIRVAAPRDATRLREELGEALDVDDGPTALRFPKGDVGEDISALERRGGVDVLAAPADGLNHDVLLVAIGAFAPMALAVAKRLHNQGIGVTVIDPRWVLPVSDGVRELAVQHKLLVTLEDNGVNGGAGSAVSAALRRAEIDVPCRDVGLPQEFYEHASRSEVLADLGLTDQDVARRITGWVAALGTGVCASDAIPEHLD
assay.overview: biochemical
reported.conditions: read-out: inhib. (%) mtDXPS
# cutoff 9% applies to inhibition at 120 µM; >= gives YES, < gives NO

Would you please look over these solved cases?
>>> print(df.to_string())
                                smiles_text  category_label
0  CC(C)(C)OC(=O)N[C@@H](Cc1ccccc1)C(=O)N/N=C/c1ccc2cc[nH]c2c1              NO
1  O=C(CCCOc1ccc(Cl)cc1Cl)N/N=C/c1ccc2cc[nH]c2c1              NO
2    CCN(CC)c1ccc(/C=N/NC(=O)c2cccs2)c(O)c1             YES

Query :: Please check the record O=C(COc1ccc(Cl)cc1Cl)N/N=C/c1cc2c(s1)CCCC2 and state if its inhibition at 120 µM is at or above 9%.
Result :: YES

Query :: Please check the record O=C(N/N=C/c1cc2c(s1)CCCC2)c1cccs1 and state if its inhibition at 120 µM is at or above 9%.
Result :: YES

Query :: Please check the record O=C(N/N=C/c1ccc2cc[nH]c2c1)c1cc2c(s1)CCCC2 and state if its inhibition at 120 µM is at or above 9%.
Result :: YES

---

target.of.assay: drDXPS (Deinococcus radiodurans, UniProt Q9RUB5)
Sequence (Q9RUB5 whole entry): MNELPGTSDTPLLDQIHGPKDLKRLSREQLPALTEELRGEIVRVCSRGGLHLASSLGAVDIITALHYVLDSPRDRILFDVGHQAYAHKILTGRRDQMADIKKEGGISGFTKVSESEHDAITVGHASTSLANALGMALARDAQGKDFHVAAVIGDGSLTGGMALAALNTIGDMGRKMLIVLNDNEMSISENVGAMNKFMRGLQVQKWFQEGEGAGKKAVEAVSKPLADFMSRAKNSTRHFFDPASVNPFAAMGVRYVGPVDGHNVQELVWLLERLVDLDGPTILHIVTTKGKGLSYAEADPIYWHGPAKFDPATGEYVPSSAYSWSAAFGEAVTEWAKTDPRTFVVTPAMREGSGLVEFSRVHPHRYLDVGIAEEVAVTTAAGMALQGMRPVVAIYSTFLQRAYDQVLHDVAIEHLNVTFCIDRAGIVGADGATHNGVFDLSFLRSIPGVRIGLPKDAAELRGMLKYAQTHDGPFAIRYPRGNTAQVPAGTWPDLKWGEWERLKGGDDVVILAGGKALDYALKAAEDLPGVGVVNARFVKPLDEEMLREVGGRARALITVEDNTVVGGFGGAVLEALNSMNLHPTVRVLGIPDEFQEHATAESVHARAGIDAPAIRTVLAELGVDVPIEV
assay.overview: biochemical
reported.conditions: IC50 drDXPS, at 0.3 μM ThDP
quantity.measured: pIC50
// pIC50 is dimensionless: -log10 of concentration (M)

Query :: Provide the documented pIC50 with drDXPS (Deinococcus radiodurans, UniProt Q9RUB5) as the system for O=C(N/N=C/c1ccc(C(F)(F)F)nc1)c1cc2c(s1)CCCC2 [Compound 1]
Result :: 4.46

---

target.of.assay: drDXPS (Deinococcus radiodurans, UniProt Q9RUB5)
assay.overview: biochemical
reported.conditions: read-out: inhib. (%) drDXPS, at 120 μM
# cutoff 40% applies to inhibition at 120 µM; >= gives class 1, < gives class 0

Would you please look over these solved cases?
                                   compound  category_label
0  O=C(CCCOc1ccc(Cl)cc1Cl)N/N=C/c1cccs1 [Compound 16]         class 0
1  O=C(COc1ccc(Cl)cc1Cl)N/N=C/c1ccc(Br)cn1 [Compound 10]         class 0
2  CCN(CC)c1ccc(/C=N/NC(=O)c2cccs2)c(O)c1 [Compound 21]         class 0
3  O=C(CCCOc1ccc(Cl)cc1Cl)NCCc1ccc(O)cc1F [Compound 39]         class 0
4  Nc1ncc(/C=N/NC(=O)c2cc3c(s2)CCCC3)cn1 [Compound 3]         class 0
5  O=C(COc1ccc(Cl)cc1Cl)N/N=C/c1c[nH]c2ccccc12 [Compound 9]         class 0

Query :: Please check the record O=C(CCCOc1ccc(Cl)cc1Cl)N/N=C/c1cccc2[nH]ncc12 [Compound 22] and state if its inhibition at 120 µM is at or above 40%.
Result :: class 1

Query :: Please check the record COc1cccc(/C=N/NC(=O)CCCOc2ccc(Cl)cc2Cl)c1O [Compound 25] and state if its inhibition at 120 µM is at or above 40%.
Result :: class 1

---

target.of.assay: mtDXPS (Mycobacterium tuberculosis, UniProt P9WNS3)
assay.overview: biochemical
reported.conditions: read-out: inhib. (%) mtDXPS
quantity.measured: inhibition at 200 µM
Write the numeric value and follow it with the unit.

Query :: Can you share its inhibition at 200 µM? I mean this compound: O=C(COc1ccc(Cl)cc1Cl)N/N=C/c1c[nH]c2ccccc12
Result :: 15%

Query :: Can you share its inhibition at 200 µM? I mean this compound: O=C(Cc1c[nH]c2ccccc12)N/N=C/c1ccc(C(F)(F)F)nc1
Result :: 25%

Query :: Can you share its inhibition at 200 µM? I mean this compound: O=C(COc1ccc(Cl)cc1Cl)N/N=C/c1ccc(Br)cn1
Result :: 32%

Query :: Can you share its inhibition at 200 µM? I mean this compound: O=C(N/N=C/c1cc2c(s1)CCCC2)c1cccs1
Result :: 65%

---

target.of.assay: UniProt:Q9RUB5
assay.overview: biochemical
reported.conditions: read-out: inhib. (%) drDXPS, at 120 μM
# cutoff 40% applies to inhibition at 120 µM; >= gives True, < gives False

Would you please look over these solved cases?
In [3]: df
Out[3]:
                                smiles_text  category_label
0   O=C(CCCOc1ccc(Cl)cc1Cl)N/N=C/c1ncc[nH]1           False
1  O=C(N/N=C/c1ccc2cc[nH]c2c1)c1cc2c(s1)CCCC2            True
2  O=C(CCCOc1ccc(Cl)cc1Cl)N/N=C/c1ccc2cc[nH]c2c1            True

Query :: Please check the record O=C(N/N=C/c1cc2c(s1)CCCC2)c1cccs1 and state if its inhibition at 120 µM is at or above 40%.
Result :: False

Query :: Please check the record O=C(NCCc1ccc(C(F)(F)F)nc1)c1cc2c(s1)CCCC2 and state if its inhibition at 120 µM is at or above 40%.
Result :: False

---

target.of.assay: drDXPS (Deinococcus radiodurans, UniProt Q9RUB5)
assay.overview: biochemical
reported.conditions: estimated IC50 drDXPS, estimated assuming full inhibition at high concentrations
quantity.measured: IC50 (µM)
Response body: numeric value in µM, unit text excluded.

Query :: Can you share its IC50? I mean this molecule: Oc1ccc(-c2nnc(CCCOc3ccc(Cl)cc3Cl)o2)c(F)c1
Result :: 99

---

target.of.assay: mtDXPS (Mycobacterium tuberculosis)
quantity.measured: pIC50
// pIC50 is dimensionless: -log10 of concentration (M)

Query :: Can you share its pIC50? I mean this compound: O=C(N/N=C/c1ccc(C(F)(F)F)nc1)c1cc2c(s1)CCCC2 [Compound 1]
Result :: 4.11

---

target.of.assay: drDXPS (Deinococcus radiodurans)
assay.overview: biochemical
reported.conditions: IC50 drDXPS, varying D/L-GAP concentrations
pIC50: −log10 of the molar value.
quantity.measured: pIC50

Query :: Can you share its pIC50? I mean this compound: O=C(N/N=C/c1ccc(C(F)(F)F)nc1)c1cc2c(s1)CCCC2
Result :: ~4.30
